assay-target: T1, HA-GCN4 hAPRIL (amino acid residues 105-250) (human, UniProt O75888 105-250)
T1 construct: Bought (R&D Systems); also called HA-tagged GCN4 human APRIL; HA-GCN4-huAPRIL; not shown: N-terminal HA tag; GCN4 isoleucine zipper oligomerization domain
T1 sequence: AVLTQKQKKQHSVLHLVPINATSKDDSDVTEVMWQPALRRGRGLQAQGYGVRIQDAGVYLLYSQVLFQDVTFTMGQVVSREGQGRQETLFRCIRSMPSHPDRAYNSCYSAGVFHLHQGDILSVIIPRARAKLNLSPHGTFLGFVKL
experiment-notes: blocking ELISA; blocked: human APRIL binding to human BCMA-Fc
Design: concentration or dose not given beside the values
For each record, write down the corresponding % Inhibition.
Answer format: numeric, % implied, no suffix.

I am curious: what % Inhibition value has been reported for monoclonal antibody 3631 (antibody, V domains shown, mouse-derived) VH: EIQLQQSGPELVKPGASVKVSCKASGYSFTDYNIYWVKQSHGKSLEWIGYIDPSNGGPGYNQKFRGKATLTVDKSSSTAFLHLNSLTSEDSAVYYCARRDNYGSGTMDYWGQGTSVTVSS VL: DIVMTQSQKFMSTSVGDRVSITCKASQNVGTDVSWYQQKPGKSPKPLIYWASNRFTGVPDRFIGSGSGTDFTLTISNVQSEDLADYFCEQYSIYPLTFGAGTKLELK ?
100

I am curious: what % Inhibition value has been reported for 4237 (antibody, V domains shown, also called monoclonal antibody 4237) VH: QAHLKESGPGLVAPSQSLSITCTVSGFSLTDYDVHWVRQSPGKGLEWLGVIWNDGSTDYNTAFISRLTISKDNSKSQVFFKMNSLQADDTAIYYCARNWYGGYWFAYWGQGTLVTVSA VL: DIQMTQSPASLSASAGETVTITCRSSENIYSYLAWYQQKQGKSPQLLVYNANALAEGVPSRFSGSGSVTQFSLKINSLQPEDFGSYYCQHHYGTPFTFGSGTKLEIK ?
93

I am curious: what % Inhibition value has been reported for monoclonal antibody 3530 (antibody, mouse IgG2, V domains shown) VH: QVQLQQSGAELVRPGASVKLSCKASGYTFTDHEMHWVRQTPVHGLEWIGVIDPDTGDTTYNQKFKGKATLTADKSSSTAYMDLRSLTSEDSAVFYCTRWTGGDYWGHGTTLTVSS VL: DAVMTQTPLSLSVTIGQPASISCKSSQSLLYSDGKTYLNWFQQRPGQSPKRLMYQVSKLDPGIPDRFSGSGSETDFTLKISRVEAEDLGVYYCLQGTYYPYTFGSGTKLEIK ?
37

I am curious: what % Inhibition value has been reported for monoclonal antibody 2218 (antibody, mouse IgG2, V domains shown) VH: DVQLQESGPGLVKPSQSLSLTCSVTGYSITSGYYWNWIRQFPGNKLEWMGYISYDGYNNYNPSLKNRISITRDTSKNQFFLKLNSVTTEDTATYYCANYYDYEDWYFGVWGTGTTVTVSS VL: DIVLTQSPASLAMSLGKRATISCRASESVSIIGTNSIHWYQQKPGQPPKLLIYHASNLETGVPARFSGSGSRTDFTLTIDPVEEDDVAIYYCLQSRKIPYTFGGGTKLEIK ?
99

I am curious: what % Inhibition value has been reported for monoclonal antibody 4540 (antibody, V domains shown, mouse-derived) VH: QVQLQQSGPELVKPGASVKISCKASGYTFADYYINWVKQRPGQGLEWIGWIFPGSGSTYYNEKFKGKATLTVDKSSSTAYMLLSSLTSEDSAVYFCARGDSGRAMDYWGQGTSVTVSS VL: DIQMTQSPSSLSASLGGKVTITCKASQDINKYIAWYQHKPGKGPRLLIHYTSTLQSGIPSRFSGSGSGRDYSFSISNLEPEDNATYYCLQYDNLLTFGAGTKLELK ?
98

Every entry's value here was drawn from patent US20170145086A1.
